Ref: patent US20130136748A1

- study.target: hHER3 full length (human, UniProt P21860 20-1342)
- test.details: cell-based or functional assay
readout.type: IC50 pHER3 blocking, HRG stimulated MCF7 (M)

binder="17B05 (VHH, also called HER3MS17B05; HER3MS017B05) VHH: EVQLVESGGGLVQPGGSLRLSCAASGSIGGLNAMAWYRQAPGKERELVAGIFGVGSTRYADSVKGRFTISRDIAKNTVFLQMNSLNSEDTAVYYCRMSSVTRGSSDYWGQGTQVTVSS" readout_type="IC50 pHER3 blocking, HRG stimulated MCF7" unit_of_measurement=M numeric_readout=4.52e-09
binder="HER3MS00119 (VHH, 17B05 second round, S84P (final variant); also called HER3MS0119) VHH: EVQLVESGGGLVQPGGSLRLSCAASGSIGGLNAMAWYRQAPGKERELVAGIFGVGSTRYADSVKGRFTISRDNSKNTVYLQMNSLRPEDTAVYYCRMSSVTRGSSDYWGQGTLVTVSS" readout_type="IC50 pHER3 blocking, HRG stimulated MCF7" unit_of_measurement=M numeric_readout=1.7e-09
binder="HER3MS00121 (VHH, 17B05 second round, E1D, S84P (final variant for N-terminal use); also called HER3MS0121) VHH: DVQLVESGGGLVQPGGSLRLSCAASGSIGGLNAMAWYRQAPGKERELVAGIFGVGSTRYADSVKGRFTISRDNSKNTVYLQMNSLRPEDTAVYYCRMSSVTRGSSDYWGQGTLVTVSS" readout_type="IC50 pHER3 blocking, HRG stimulated MCF7" unit_of_measurement=M numeric_readout=3.53e-09

A. HER3MS00118 (VHH, 17B05 second round, S84A; also called HER3MS0118) VHH: EVQLVESGGGLVQPGGSLRLSCAASGSIGGLNAMAWYRQAPGKERELVAGIFGVGSTRYADSVKGRFTISRDNSKNTVYLQMNSLRAEDTAVYYCRMSSVTRGSSDYWGQGTLVTVSS
B. HER3MS00120 (VHH, 17B05 second round, E1D, S84A; also called HER3MS0120) VHH: DVQLVESGGGLVQPGGSLRLSCAASGSIGGLNAMAWYRQAPGKERELVAGIFGVGSTRYADSVKGRFTISRDNSKNTVYLQMNSLRAEDTAVYYCRMSSVTRGSSDYWGQGTLVTVSS
Request: Field: lower IC50 pHER3 blocking, HRG stimulated MCF7 | Options: A / B Selection: enter the item's label.
Result: A
(A: 2.69e-09 M, B: 4.28e-09 M)
